Each recorded value in this set is attributed to patent US10723699B2.

target: G protein-coupled receptor 119 (GPR-119) (Mesocricetus auratus, UniProt A0A1U8CD06); construct: hamster-derived β-cells containing G protein-coupled receptor 119 (GPR-119), HIT-T15 cells; host or cells: HIT-T15 (hamster pancreatic β-cells); test: cAMP activity in HIT-T15 cells (cAMP dynamic kit, FRET); assay type: cell-based, hamster; settings: 1 hour at 37° C., six concentrations 0.0032 to 10 μM, read-out: EC50
Sequence (A0A1U8CD06 1-334): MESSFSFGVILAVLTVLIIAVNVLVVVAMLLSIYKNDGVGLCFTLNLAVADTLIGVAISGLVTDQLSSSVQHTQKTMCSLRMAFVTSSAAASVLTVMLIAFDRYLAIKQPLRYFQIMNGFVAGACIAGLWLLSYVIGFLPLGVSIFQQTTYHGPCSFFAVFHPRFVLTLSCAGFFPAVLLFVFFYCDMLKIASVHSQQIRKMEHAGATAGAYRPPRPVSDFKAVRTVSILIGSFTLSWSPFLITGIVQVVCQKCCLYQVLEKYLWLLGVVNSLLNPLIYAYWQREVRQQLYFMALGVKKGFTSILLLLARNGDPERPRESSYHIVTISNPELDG
pEC50: −log10 of the molar value.
This section presents compounds with their documented pEC50 values.

- Compound: "CCc1cnc(N2CCC(COc3ccc(C4=CCC(C(=O)NCC(F)(F)F)CC4)cc3F)CC2)nc1 (stereo not shown)"
  pEC50: 7.06
- Compound: "CCc1cnc(N2CCC(COc3ccc(C4=CCC(C(=O)N5CCC(CO)CC5)CC4)c(F)c3)CC2)nc1 (stereo not shown)"
  pEC50: 7.54
- Compound: "CC(C)(C)OC(=O)N1CCC(COc2ccc(C3=CCC(C(=O)N4CCC(CCO)CC4)CC3)nc2)CC1 (stereo not shown)"
  pEC50: 7.15
- Compound: "CCc1cnc(N2CCC(COc3ccc(C4=CCC(C(=O)N5CC(F)(F)C(F)(F)C5)CC4)c(F)c3)CC2)nc1 (stereo not shown) [Example 455]"
  pEC50: 7.74
- Compound: "CCc1cnc(N2CCC(COc3ccc(C4=CCC(C(=O)N5CCCCC5)CC4)cc3C#N)CC2)nc1 (stereo not shown)"
  pEC50: 7.35
- Compound: "CC(C)c1noc(N2CCC(COc3ccc(C4=CCC(C(=O)N5CCN(C6CC6)CC5)CC4)cc3)CC2)n1 (stereo not shown)"
  pEC50: 8.00
- Compound: "O=C(OC(C(F)(F)F)C(F)(F)F)N1CCC(COc2ccc(C3=CCC(C(=O)N4CCOCC4)CC3)cc2F)CC1 (stereo not shown)"
  pEC50: 7.70

###

Molecular target: CYP1A2 (Homo sapiens)
Construct: purchased BD GENTEST 459100
Sequence (P05177 1-516): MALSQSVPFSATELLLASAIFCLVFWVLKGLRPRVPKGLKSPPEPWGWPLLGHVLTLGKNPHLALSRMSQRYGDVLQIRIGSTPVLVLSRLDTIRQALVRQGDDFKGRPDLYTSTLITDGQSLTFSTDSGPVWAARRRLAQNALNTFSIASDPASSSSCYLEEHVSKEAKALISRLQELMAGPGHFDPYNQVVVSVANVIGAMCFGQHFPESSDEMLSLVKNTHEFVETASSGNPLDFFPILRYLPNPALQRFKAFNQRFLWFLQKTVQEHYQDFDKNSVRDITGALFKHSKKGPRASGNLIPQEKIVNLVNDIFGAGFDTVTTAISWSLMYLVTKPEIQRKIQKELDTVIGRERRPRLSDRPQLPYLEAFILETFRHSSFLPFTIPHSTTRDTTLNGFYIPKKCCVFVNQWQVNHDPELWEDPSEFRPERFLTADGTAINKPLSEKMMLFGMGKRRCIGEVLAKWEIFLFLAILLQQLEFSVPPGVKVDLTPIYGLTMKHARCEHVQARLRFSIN
Assay: CYP inhibition assay (BD GENTEST kit)
Format: in vitro ADME
Conditions: human, CYP1A2 enzyme/substrate mixture of BD GENTEST kit, pH 7.4, 10 μM; read-out: CYP inhibition (% at 10 μM) 1A2
This section presents compounds with their documented inhibition at 15 min, 10 µM values.

- Compound: "CCc1cnc(N2CCC(COc3ccc(C4=CCC(C(=O)N5CCC[C@@H]5CO)CC4)cc3)CC2)nc1 (some centres unmarked)"
  Measurement Units: "%"
  inhibition at 15 min, 10 µM: 0
- Compound: "CC(C)c1noc(C2CCN(c3ncnc(Nc4ccc(S(C)(=O)=O)cc4F)c3[N+](=O)[O-])CC2)n1 [Comparative Example 1, reference compound]"
  Measurement Units: "%"
  inhibition at 15 min, 10 µM: 10.4

###

This section presents molecules with their documented pEC50 values.
target: G protein-coupled receptor 119 (GPR-119) (Mesocricetus auratus, UniProt A0A1U8CD06); construct: hamster-derived β-cells containing G protein-coupled receptor 119 (GPR-119), HIT-T15 cells; host or cells: HIT-T15 (hamster pancreatic β-cells); assay: cAMP activity in HIT-T15 cells (cAMP dynamic kit, FRET); format: cell-based, hamster; details: 1 hour at 37° C., six concentrations 0.0032 to 10 μM, read-out: EC50
pEC50: −log10 of the molar value.

- Molecule: "CC(C)c1noc(N2CCC(COc3ccc(C4=CCC(C(=O)N5CCN(CCCO)CC5)CC4)cc3F)CC2)n1 (stereo not shown) [Example 347]"
  pEC50: 7.26
- Molecule: "CCc1cnc(N2CCC(COc3ccc(C4=CCC(C(=O)N5CCC5)CC4)cc3C#N)CC2)nc1 (stereo not shown)"
  pEC50: 7.10
- Molecule: "CCc1cnc(N2CCC(COc3ccc(C4=CCC(C(=O)NC5CC5)CC4)cc3F)CC2)nc1 (stereo not shown)"
  pEC50: 6.96
- Molecule: "CC(C)c1noc(N2CCC(COc3ccc(C4=CCC(C(=O)N5CCN(C6CC6)CC5)CC4)cc3F)CC2)n1 (stereo not shown) [Example 369]"
  pEC50: 8.05
- Molecule: "CC(C)c1noc(N2CCC(COc3ccc(C4=CCC(C(=O)N5CCN(CCCO)CC5)CC4)cc3F)CC2)n1 (stereo not shown) [Example 368]"
  pEC50: 7.32
- Molecule: "CC(C)c1noc(N2CCC(COc3ccc(C4=CCC(C(=O)N(CCO)CCO)CC4)cc3F)CC2)n1 (stereo not shown)"
  pEC50: 7.34
- Molecule: "CC(C)c1noc(N2CCC(COc3ccc(C4=CCC(C(=O)N5CCSCC5)CC4)c(F)c3)CC2)n1 (stereo not shown)"
  pEC50: 7.48

###

This section presents compounds with their documented inhibition at 1.5 h, 10 µM values.
Molecular target: CYP2C9 (Homo sapiens)
Construct: purchased BD GENTEST 459300
Sequence (P11712 whole entry): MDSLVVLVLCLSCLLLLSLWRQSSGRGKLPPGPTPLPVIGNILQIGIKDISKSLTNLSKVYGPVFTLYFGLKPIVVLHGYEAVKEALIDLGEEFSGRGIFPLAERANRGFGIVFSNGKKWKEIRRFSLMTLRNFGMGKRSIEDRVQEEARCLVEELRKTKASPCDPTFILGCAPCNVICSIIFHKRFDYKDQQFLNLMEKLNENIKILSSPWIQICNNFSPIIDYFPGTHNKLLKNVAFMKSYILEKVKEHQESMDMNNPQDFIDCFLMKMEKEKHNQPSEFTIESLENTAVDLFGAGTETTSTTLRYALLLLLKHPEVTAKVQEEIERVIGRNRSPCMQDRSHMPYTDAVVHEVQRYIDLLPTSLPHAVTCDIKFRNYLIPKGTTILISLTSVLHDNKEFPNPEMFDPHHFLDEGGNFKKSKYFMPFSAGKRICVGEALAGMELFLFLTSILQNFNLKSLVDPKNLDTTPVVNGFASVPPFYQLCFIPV
Test: CYP inhibition assay (BD GENTEST kit)
Assay type: in vitro ADME
Settings: human, CYP2C9 enzyme/substrate mixture of BD GENTEST kit, pH 7.4, 10 μM; read-out: CYP inhibition (% at 10 μM) 2C9
Text: CYP enzymes play a major role in the metabolism of drugs. Depending on the inhibition activity of the CYP enzymes, the dose of the drugs and toxicity due to the co-administration of other drugs can be predicted. Therefore, we have measured the inhibitory activity for CYP3A4, CYP2C9, CYP1A2, CYP2D6 and CYP2C19 enzymes present in the body using the compounds of the present invention. […]
Observation Type: inhibition at 1.5 h, 10 µM

- Compound: "CCc1cnc(N2CCC(COc3ccc(C4=CCC(C(=O)N5CCC[C@@H]5CO)CC4)cc3)CC2)nc1 (some centres unmarked)"
  Result: "29.8%"
- Compound: "CC(C)c1noc(C2CCN(c3ncnc(Nc4ccc(S(C)(=O)=O)cc4F)c3[N+](=O)[O-])CC2)n1 [Comparative Example 1, reference compound]"
  Result: "24.1%"

###

This section presents compounds with their documented EC50 values.
biological target: G protein-coupled receptor 119 (GPR-119) (Mesocricetus auratus, UniProt A0A1U8CD06); construct: hamster-derived β-cells containing G protein-coupled receptor 119 (GPR-119), HIT-T15 cells; host or cells: HIT-T15 (hamster pancreatic β-cells); assay: cAMP activity in HIT-T15 cells (cAMP dynamic kit, FRET); format: cell-based, hamster; settings: EC50 (nM), 1 hour at 37° C., six concentrations 0.0032 to 10 μM
Observation Type: EC50 (nM)

- Compound: "CCc1cnc(N2CCC(COc3ccc(C4=CCC(C(=O)N5CCC6(CC5)OCCO6)CC4)cc3F)CC2)nc1 (stereo not shown) [Example 306]"
  Recorded Number: 8.9
- Compound: "CC(C)c1noc(N2CCC(COc3ccc(C4=CCC(C(=O)N5CCC(=O)CC5)CC4)cc3F)CC2)n1 (stereo not shown) [Example 345]"
  Recorded Number: 36
- Compound: "CCc1cnc(N2CCC(COc3ccc(C4=CCC(C(=O)N5CCC(=O)CC5)CC4)cc3F)CC2)nc1 (stereo not shown) [Example 308]"
  Recorded Number: 23
- Compound: "CC(C)c1noc(N2CCC(COc3ccc(C4=CCC(C(=O)N5CCC6(CC5)OCCO6)CC4)cc3F)CC2)n1 (stereo not shown) [Example 370]"
  Recorded Number: 15

###

Target: G protein-coupled receptor 119 (GPR-119) (Mesocricetus auratus, UniProt A0A1U8CD06)
Construct: hamster-derived β-cells containing G protein-coupled receptor 119 (GPR-119), HIT-T15 cells; host or cells: HIT-T15 (hamster pancreatic β-cells)
Experiment: cAMP activity in HIT-T15 cells (cAMP dynamic kit, FRET)
Assay type: cell-based, hamster
Details: 1 hour at 37° C., six concentrations 0.0032 to 10 μM, read-out: EC50
Experimental: To check whether the cyclohexene derivatives according to the present invention activate cyclic adenosine monophosphate (cAMP), experiments were carried out, as follows. The HIT-T15 cells were plated on a 96-well plate at 60,000 cells per well. […] The cyclic adenosine monophosphate (cAMP) activity was measured according to the manufacturer's instruction using a cAMP dynamic kit commercially available from Cis Bio Inc. (Bedford, Mass.). […] Fluorescence was read in Flex Station (Molecular Devices). […]
pEC50: −log10 of the molar value.
This section presents compounds with their documented pEC50 values.

- Compound: "CCc1cnc(N2CCC(COc3ccc(C4=CCC(C(=O)N5CCOCC5)CC4)cn3)CC2)nc1 (stereo not shown)"
  pEC50: 7.39
- Compound: "CC(C)(C)OC(=O)N1CCC(COc2ccc(C3=CCC(C(=O)N4CCCC4)CC3)cc2F)CC1 (stereo not shown)"
  pEC50: 8.00
- Compound: "CCc1cnc(N2CCC(COc3ccc(C4=CCC(C(=O)N5CCC(=NO)CC5)CC4)cc3F)CC2)nc1 (stereo not shown)"
  pEC50: 7.96
- Compound: "CCc1cnc(N2CCC(COc3ccc(C4=CCC(C(=O)N5CCC(O)CC5)CC4)cc3C#N)CC2)nc1 (stereo not shown)"
  pEC50: 7.15
- Compound: "CC(C)(C)OC(=O)N1CCC(COc2ccc(C3=CCC(C(=O)N4CCC(C#N)CC4)CC3)cc2)CC1 (stereo not shown)"
  pEC50: 8.15
- Compound: "CCc1cnc(N2CCC(COc3ccc(C4=CCC(C(=O)N5CCC(O)CC5)CC4)cn3)CC2)nc1 (stereo not shown)"
  pEC50: 7.24
- Compound: "CCc1cnc(N2CCC(COc3ccc(C4=CCC(C(=O)NC5CCCC5)CC4)cc3F)CC2)nc1 (stereo not shown)"
  pEC50: 7.70
- Compound: "CCc1cnc(N2CCC(COc3ccc(C4=CCC(C(=O)N5CCSCC5)CC4)c(F)c3)CC2)nc1 (stereo not shown)"
  pEC50: 7.72
- Compound: "CCc1cnc(N2CCC(COc3ccc(C4=CCC(C(=O)N5CCOCC5)CC4)cc3C#N)CC2)nc1 (stereo not shown)"
  pEC50: 7.29
- Compound: "CCc1cnc(N2CCC(COc3ccc(C4=CCC(C(=O)N5CCC[C@H]5CO)CC4)cc3)CC2)nc1 (single isomer, unassigned; (+)) [Example 466]"
  pEC50: 7.92
- Compound: "CCc1cnc(N2CCC(COc3ccc(C4=CCC(C(=O)N5CCC(O)CC5)CC4)cc3F)CC2)nc1 (stereo not shown)"
  pEC50: 7.64
- Compound: "CCc1cnc(N2CCC(COc3ccc(C4=CCC(C(=O)N5CCC[C@H]5CO)CC4)cc3)CC2)nc1 (single isomer, unassigned; (-)) [Example 465]"
  pEC50: 6.96
- Compound: "Cn1nnnc1N1CCC(COc2ccc(C3=CCC(C(=O)N4CCCC4)CC3)cc2F)CC1 (stereo not shown)"
  pEC50: 6.96
- Compound: "CC(C)(C)OC(=O)N1CCC(COc2ccc(C3=CCC(C(=O)N4CCOCC4)CC3)cc2F)CC1 (single isomer, unassigned; (-)) [Example 443]"
  pEC50: 7.42
- Compound: "CC(C)(C)OC(=O)N1CCC(COc2ccc(C3=CCC(C(=O)N4CCOCC4)CC3)cc2F)CC1 (single isomer, unassigned; (+)) [Example 442]"
  pEC50: 8.10
- Compound: "CCc1cnc(N2CCC(COc3ccc(C4=CCC(C(=O)N5CCC[C@@H]5CO)CC4)cc3)CC2)nc1 (single isomer, unassigned; (-)) [Example 291]"
  pEC50: 7.49
- Compound: "CC(OC(=O)N1CCC(COc2ccc(C3=CCC(C(=O)N4CCCC4)CC3)cc2F)CC1)C(F)(F)F (stereo not shown)"
  pEC50: 7.44
- Compound: "CCc1cnc(N2CCC(COc3ccc(C4=CCC(C(=O)N5CCCCC5)CC4)c(F)c3)CC2)nc1 (stereo not shown)"
  pEC50: 8.17
- Compound: "CCc1cnc(N2CCC(COc3ccc(C4=CCC(C(=O)N5CC(F)(F)C(F)(F)C5)CC4)c(F)c3)CC2)nc1 (single isomer, unassigned; (+)) [Example 464]"
  pEC50: 7.89
- Compound: "CCc1cnc(N2CCC(COc3ccc(C4=CCC(C(=O)N5CCC5)CC4)c(F)c3)CC2)nc1 (stereo not shown)"
  pEC50: 7.32
- Compound: "O=C(OC(C(F)(F)F)C(F)(F)F)N1CCC(COc2ccc(C3=CCC(C(=O)N4CCCC4)CC3)cc2F)CC1 (stereo not shown)"
  pEC50: 7.23
- Compound: "O=C(Oc1ccccc1)N1CCC(COc2ccc(C3=CCC(C(=O)N4CCCC4)CC3)cc2F)CC1 (stereo not shown)"
  pEC50: 7.66
- Compound: "CC(C)(C)OC(=O)N1CCC(COc2ccc(C3=CCC(C(=O)N4CCCC4)CC3)nc2)CC1 (stereo not shown)"
  pEC50: 6.92
- Compound: "CC(C)(C)OC(=O)N1CCC(COc2ccc(C3=CCC(C(=O)N4CCSCC4)CC3)nc2)CC1 (stereo not shown)"
  pEC50: 7.68
- Compound: "CCc1cnc(N2CCC(COc3ccc(C4=CCC(C(=O)N5CCC(F)(F)C5)CC4)c(F)c3)CC2)nc1 (single isomer, unassigned; (+)) [Example 462]"
  pEC50: 7.85
- Compound: "O=C(C1CC=C(c2ccc(OCC3CCN(c4nc(C(F)(F)F)no4)CC3)c(F)c2)CC1)N1CCCC1 (stereo not shown)"
  pEC50: 7.89
- Compound: "CC(C)c1noc(N2CCC(COc3ccc(C4=CCC(C(=O)N5CCC(=O)C5)CC4)cc3)CC2)n1 (stereo not shown)"
  pEC50: 7.66
- Compound: "CCc1cnc(N2CCC(COc3ccc(C4=CCC(C(=O)N5CCCCC5)CC4)cc3C)CC2)nc1 (stereo not shown)"
  pEC50: 7.26
